We begin with a simple list: items and their reported binding signal.
# Measured On: MBP-FoxP3dN (Mus musculus, UniProt Q99JB6 188-423)
# Sequence: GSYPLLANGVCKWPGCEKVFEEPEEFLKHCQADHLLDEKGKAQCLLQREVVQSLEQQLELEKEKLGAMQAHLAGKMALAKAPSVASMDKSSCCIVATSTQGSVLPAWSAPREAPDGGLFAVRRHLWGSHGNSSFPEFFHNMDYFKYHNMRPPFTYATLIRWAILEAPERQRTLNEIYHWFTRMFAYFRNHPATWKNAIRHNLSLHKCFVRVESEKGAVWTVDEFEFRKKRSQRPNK
# Protocol Text: PD-seq (MBP pull-down with sequencing); 20 mM Tris-HCl pH 7.5, 100 mM NaCl, 1.5 mM MgCl2, 0.4 uM protein, 0.1 uM dsDNA library, 30 min, room temperature, amylose pull-down; high values mean tight binding
# Experimental Parameters: protein: recombinant; tags: His6-MBP; chain copies: 2; dsDNA, one strand shown
The full ranking holds about 16,000 sequences; the median of “rpm ratio (pull-down/input)” is about 0.5, and the highest 2% start at about 5.5. The sample as a whole holds a higher share of the highest values than the screen did.
Quantity Measured: binding signal

* GATGATTGTTCTCCCAGCTGATGAATTGGGCATCTCGAGTAAACAAATTTTCCTAATCTTTCTGTTCAAGCGCCATCTAC | 6.41 RPM ratio (pull-down/input)
* GATGATTGTTCTCCCAGCTGATGAATTCTTTTTGTCGAGTAAACAAATTTTCCTAATCTTTCTGTTCAAGCGCCATCTAC | 0.437 RPM ratio (pull-down/input)
* GATGATTGTTCTCCCAGCTGATGAATTTGGGCATTCGAGTAAACAAATTTTCCTAATCTTTCTGTTCAAGCGCCATCTAC | 4.79 RPM ratio (pull-down/input)
* GATGATTGTTCTCCCAGCTGATGAATTTTCCTTCTCGAGTAAACAAATTTTCCTAATCTTTCTGTTCAAGCGCCATCTAC | 0.258 RPM ratio (pull-down/input)
* GATGATTGTTCTCCCAGCTGATGAATTTTTTGTATCGAGTAAACAAATTTTCCTAATCTTTCTGTTCAAGCGCCATCTAC | 0.521 RPM ratio (pull-down/input)
* GATGATTGTTCTCCCAGCTGATGAATTCGGCAAGTCGAGTAAACAAATTTTCCTAATCTTTCTGTTCAAGCGCCATCTAC | 1.34 RPM ratio (pull-down/input)
* GATGATTGTTCTCCCAGCTGATGAATTATCGGTCTCGAGTAAACAAATTTTCCTAATCTTTCTGTTCAAGCGCCATCTAC | 0.382 RPM ratio (pull-down/input)
* GATGATTGTTCTCCCAGCTGATGAATTTTGGGCATCGAGTAAACAAATTTTCCTAATCTTTCTGTTCAAGCGCCATCTAC | 0.782 RPM ratio (pull-down/input)
* GATGATTGTTCTCCCAGCTGATGAATTGTAGTAATCGAGTAAACAAATTTTCCTAATCTTTCTGTTCAAGCGCCATCTAC | 1.03 RPM ratio (pull-down/input)
* GATGATTGTTCTCCCAGCTGATGAATTTGTATCCTCGAGTAAACAAATTTTCCTAATCTTTCTGTTCAAGCGCCATCTAC | 5.4 RPM ratio (pull-down/input)
* GATGATTGTTCTCCCAGCTGATGAATTGGGCATTTCGAGTAAACAAATTTTCCTAATCTTTCTGTTCAAGCGCCATCTAC | 5.5 RPM ratio (pull-down/input)
* GATGATTGTTCTCCCAGCTGATGAATTGGGGGCATCGAGTAAACAAATTTTCCTAATCTTTCTGTTCAAGCGCCATCTAC | 0.87 RPM ratio (pull-down/input)
* GATGATTGTTCTCCCAGCTGATGAATTTGTAGTATCGAGTAAACAAATTTTCCTAATCTTTCTGTTCAAGCGCCATCTAC | 5.7 RPM ratio (pull-down/input)
* GATGATTGTTCTCCCAGCTGATGAATTTTCTTTGTCGAGTAAACAAATTTTCCTAATCTTTCTGTTCAAGCGCCATCTAC | 1.15 RPM ratio (pull-down/input)
* GATGATTGTTCTCCCAGCTGATGAATTTGTTTTGTCGAGTAAACAAATTTTCCTAATCTTTCTGTTCAAGCGCCATCTAC | 7.57 RPM ratio (pull-down/input)
* GATGATTGTTCTCCCAGCTGATGAATTAGGCATCTCGAGTAAACAAATTTTCCTAATCTTTCTGTTCAAGCGCCATCTAC | 6.82 RPM ratio (pull-down/input)
* GATGATTGTTCTCCCAGCTGATGAATTGTAGACATCGAGTAAACAAATTTTCCTAATCTTTCTGTTCAAGCGCCATCTAC | 0.874 RPM ratio (pull-down/input)
* GATGATTGTTCTCCCAGCTGATGAATTTTAGGCCTCGAGTAAACAAATTTTCCTAATCTTTCTGTTCAAGCGCCATCTAC | 0.444 RPM ratio (pull-down/input)
* GATGATTGTTCTCCCAGCTGATGAATTTAAACGCTCGAGTAAACAAATTTTCCTAATCTTTCTGTTCAAGCGCCATCTAC | 0.381 RPM ratio (pull-down/input)
* GATGATTGTTCTCCCAGCTGATGAATTTCTTTTGTCGAGTAAACAAATTTTCCTAATCTTTCTGTTCAAGCGCCATCTAC | 1.65 RPM ratio (pull-down/input)
* GATGATTGTTCTCCCAGCTGATGAATTCGAACTTTCGAGTAAACAAATTTTCCTAATCTTTCTGTTCAAGCGCCATCTAC | 0.271 RPM ratio (pull-down/input)
* GATGATTGTTCTCCCAGCTGATGAATTAGAGATCTCGAGTAAACAAATTTTCCTAATCTTTCTGTTCAAGCGCCATCTAC | 0.32 RPM ratio (pull-down/input)
* GATGATTGTTCTCCCAGCTGATGAATTCTAAGTGTCGAGTAAACAAATTTTCCTAATCTTTCTGTTCAAGCGCCATCTAC | 0.48 RPM ratio (pull-down/input)
* GATGATTGTTCTCCCAGCTGATGAATTAGGCCTCTCGAGTAAACAAATTTTCCTAATCTTTCTGTTCAAGCGCCATCTAC | 5.5 RPM ratio (pull-down/input)
* GATGATTGTTCTCCCAGCTGATGAATTAACTTAGTCGAGTAAACAAATTTTCCTAATCTTTCTGTTCAAGCGCCATCTAC | 0.295 RPM ratio (pull-down/input)
* GATGATTGTTCTCCCAGCTGATGAATTGGGAACGTCGAGTAAACAAATTTTCCTAATCTTTCTGTTCAAGCGCCATCTAC | 0.31 RPM ratio (pull-down/input)
* GATGATTGTTCTCCCAGCTGATGAATTACTCTGCTCGAGTAAACAAATTTTCCTAATCTTTCTGTTCAAGCGCCATCTAC | 0.3 RPM ratio (pull-down/input)
* GATGATTGTTCTCCCAGCTGATGAATTCACTGCTTCGAGTAAACAAATTTTCCTAATCTTTCTGTTCAAGCGCCATCTAC | 0.345 RPM ratio (pull-down/input)
* GATGATTGTTCTCCCAGCTGATGAATTAAGTAATTCGAGTAAACAAATTTTCCTAATCTTTCTGTTCAAGCGCCATCTAC | 1.05 RPM ratio (pull-down/input)

###

Each entry below lists one item and its recorded binding signal value.
# Measured On: MBP-FoxP3dN (Mus musculus, UniProt Q99JB6 188-423)
# Sequence: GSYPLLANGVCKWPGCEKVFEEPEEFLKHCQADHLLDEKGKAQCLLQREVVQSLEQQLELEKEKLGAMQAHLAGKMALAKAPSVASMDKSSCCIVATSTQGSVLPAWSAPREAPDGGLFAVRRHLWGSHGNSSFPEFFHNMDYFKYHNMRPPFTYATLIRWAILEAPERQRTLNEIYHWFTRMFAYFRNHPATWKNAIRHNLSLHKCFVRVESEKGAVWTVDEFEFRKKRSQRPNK
# Protocol Text: PD-seq (MBP pull-down with sequencing); 20 mM Tris-HCl pH 7.5, 100 mM NaCl, 1.5 mM MgCl2, 0.4 uM protein, 0.1 uM dsDNA library, 30 min, room temperature, amylose pull-down; high values mean tight binding
# Experimental Parameters: protein: recombinant; tags: His6-MBP; chain copies: 2; dsDNA, one strand shown
The full ranking holds about 16,000 sequences; the median of “rpm ratio (pull-down/input)” is about 0.5, and the highest 2% start at about 5.5. For the sample, the highest values were picked, then their nearest neighbours and some sequences at random.
Quantity Measured: binding signal

- GATGATTGTTCTCCCAGCTGATGAATTCTCTGCCTCGAGTAAACAAATTTTCCTAATCTTTCTGTTCAAGCGCCATCTAC: 0.284 RPM ratio (pull-down/input)
- GATGATTGTTCTCCCAGCTGATGAATTCCGCGCCTCGAGTAAACAAATTTTCCTAATCTTTCTGTTCAAGCGCCATCTAC: 1.68 RPM ratio (pull-down/input)
- GATGATTGTTCTCCCAGCTGATGAATTGTTCGCCTCGAGTAAACAAATTTTCCTAATCTTTCTGTTCAAGCGCCATCTAC: 0.653 RPM ratio (pull-down/input)
- GATGATTGTTCTCCCAGCTGATGAATTCCGCCTCTCGAGTAAACAAATTTTCCTAATCTTTCTGTTCAAGCGCCATCTAC: 6.3 RPM ratio (pull-down/input)
